Data origin: patent US8039496B2

Tested on: normotensive dogs
Experiment: Ocular surface hyperemia in normotensive dogs
Assay type: in vivo
Parameters: scale not given here
Conditions: 0.1%, once daily for 5 days
Procedure: U.S. Pat. No. 7,091,231 describes the methods used for these in vivo tests. 5-{3-[1R,2S,3R,5R)-5-Chloro-2-(3,5-dichloro-phenoxymethyl)-3-hydroxy-cyclopentyl]-propyl}-thiophene-2-carboxylic acid was tested at multiple concentrations in normotensive dogs, dosing once daily for 5 days. At 0.1%, the maximum intraocular pressure (IOP) decrease from baseline was 7.5 mmHg (48%) at 30 h; the maximum ocular surface hyperemia (OSH) score was 2.75 at 26 h. […]
Measured maximum ocular surface hyperemia (OSH) score accompanies every entry in the list below.
reported endpoint: maximum ocular surface hyperemia (OSH) score

>  <compound>
O=C(O)c1ccc(CCC[C@@H]2[C@@H](COc3cc(Cl)cc(CO)c3)[C@H](O)C[C@H]2Cl)s1 [Example 5]

>  <target system>
normotensive dogs

>  <observed measurement>
1.9

$$$$
>  <compound>
CC(=O)OCc1cc(Cl)cc(OC[C@@H]2[C@@H](C/C=C\CCCC(=O)OC(C)C)[C@H](Cl)C[C@H]2O)c1 [Example 13]

>  <target system>
normotensive dogs

>  <observed measurement>
0.7

$$$$
>  <compound>
O=C(O)CCC/C=C\C[C@@H]1[C@@H](COc2cc(Cl)cc(Cl)c2)[C@H](O)C[C@H]1Cl

>  <target system>
normotensive dogs

>  <observed measurement>
1.3

$$$$
>  <compound>
CC(C)OC(=O)c1ccc(CCC[C@@H]2[C@@H](COc3cc(Cl)cc(CO)c3)[C@H](O)C[C@H]2Cl)s1 [Example 14]

>  <target system>
normotensive dogs

>  <observed measurement>
1.9

$$$$
>  <compound>
CC(C)OC(=O)CCC/C=C\C[C@@H]1[C@@H](COc2cc(Cl)cc(CO)c2)[C@H](O)C[C@H]1Cl [Example 12]

>  <target system>
normotensive dogs

>  <observed measurement>
0.8

$$$$
>  <compound>
O=C(O)CCC/C=C\C[C@@H]1[C@@H](COc2cc(Cl)cc(CO)c2)[C@H](O)C[C@H]1Cl

>  <target system>
normotensive dogs

>  <observed measurement>
0.9

$$$$
>  <compound>
O=C(O)c1ccc(CCC[C@@H]2[C@@H](COc3cc(Cl)cc(Cl)c3)[C@H](O)C[C@H]2Cl)s1 [Example 4]

>  <target system>
normotensive dogs

>  <observed measurement>
2.75

$$$$
